target: T1, proprotein convertase subtilisin/kexin type 9 (PCSK9) (human, UniProt Q8NBP7 31-692); assay: phage spot ELISA
T1 construct: His-tagged full-length PCSK9 in TR-FRET and SPR, biotinylated in phage ELISA; secreted protein is autoprocessed (prodomain plus catalytic/CRD chain starting at S153); also called rec.PCSK9; His-PCSK9
T1 sequence (Q8NBP7 other isoform, or with tags, fused parts or gaps limits assumed): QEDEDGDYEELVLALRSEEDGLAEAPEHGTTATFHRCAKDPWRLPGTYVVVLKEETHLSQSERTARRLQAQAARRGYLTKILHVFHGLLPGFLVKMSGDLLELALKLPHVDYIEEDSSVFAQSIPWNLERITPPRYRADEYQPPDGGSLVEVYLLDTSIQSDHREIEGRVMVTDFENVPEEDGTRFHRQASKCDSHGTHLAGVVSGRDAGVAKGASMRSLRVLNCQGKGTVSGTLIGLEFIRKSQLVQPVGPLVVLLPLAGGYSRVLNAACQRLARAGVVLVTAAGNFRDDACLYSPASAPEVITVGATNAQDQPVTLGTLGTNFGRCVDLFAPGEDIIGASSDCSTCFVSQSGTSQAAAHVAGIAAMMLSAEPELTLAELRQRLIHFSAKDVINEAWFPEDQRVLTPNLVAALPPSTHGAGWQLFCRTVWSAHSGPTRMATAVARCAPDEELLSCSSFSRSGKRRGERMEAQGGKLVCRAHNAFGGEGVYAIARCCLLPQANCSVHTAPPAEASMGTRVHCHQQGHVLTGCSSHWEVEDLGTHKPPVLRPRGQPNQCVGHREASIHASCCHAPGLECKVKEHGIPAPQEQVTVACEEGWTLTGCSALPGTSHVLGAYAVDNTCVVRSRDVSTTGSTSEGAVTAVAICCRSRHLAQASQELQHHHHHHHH
Rule: measured s/n below 6 gets Fulfilled; anything equal to or greater than 6 gets Not fulfilled.

Just wondering, is s/n of SGPRTYLRGLVD [SEQ ID NO 366] below 6? Fulfilled

Consider the record given below.
Just wondering, is s/n of SGVCSDHYIGGKEVRC [SEQ ID NO 378] below 6? Not fulfilled
